Measured values drawn from PubChem BioAssay (NCI) for this set.

System: SF-539 CNS
Assay: NCI-60 one-dose screen, 48 h (100 = growth as untreated, 0 = no growth, -100 = all killed)
Conditions: 10 µM unless noted
The panel holds about 83,000 compounds, 20% with a hit somewhere; the sample as a whole holds those more often.
measure_name: growth (%)
# unit: % | format: bare number

Before answering, review these 3 worked examples.
| molecule | target_or_test_system | growth, % |
| --- | --- | --- |
| COc1ccc(-c2cc(-c3cn(-c4cccc(Cl)c4)nc3-c3ccc(OC)cc3)[nH]c(=S)n2)cc1 | SF-539 CNS | 92.2 |
| O=C(O)c1cc2cc(OCc3ccccc3)ccc2[nH]1 | SF-539 CNS | 87.5 |
| COC(=O)c1ccc2c(c1)nc(-c1cc3ccccc3[nH]c1=O)n2-c1cc(C(C)(C)C)[nH]n1 | SF-539 CNS | 92.6 |

Next, consider the following molecule.
Input line: Tell me the measured growth of CCN(C(=O)CCl)C(C)(C)C(SSSC(c1ccc(Cl)cc1)C(C)(C)N(CC)C(=O)CCl)c1ccc(Cl)cc1 (centres undefined) , please.
Output line: 87.7
